- SYSTEM: UniProt:P18762
- Sequence (P18762 whole entry): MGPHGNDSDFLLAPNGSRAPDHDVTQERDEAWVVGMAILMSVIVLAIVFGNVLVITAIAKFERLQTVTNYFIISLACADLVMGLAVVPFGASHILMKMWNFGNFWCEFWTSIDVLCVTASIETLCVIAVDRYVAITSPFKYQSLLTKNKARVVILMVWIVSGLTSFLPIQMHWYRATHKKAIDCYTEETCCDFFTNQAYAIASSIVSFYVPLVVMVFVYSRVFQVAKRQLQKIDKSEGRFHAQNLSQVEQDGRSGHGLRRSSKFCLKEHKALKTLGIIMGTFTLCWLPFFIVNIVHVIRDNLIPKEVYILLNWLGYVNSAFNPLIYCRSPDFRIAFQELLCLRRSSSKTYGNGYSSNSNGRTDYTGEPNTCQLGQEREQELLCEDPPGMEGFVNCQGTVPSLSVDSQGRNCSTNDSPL
- Format: binding, mice
- CONDITION CONTEXT: 15 minutes of administration

# MOLECULE, Increased β2AR density
records = [
    ("CC(C)(C)NCC(O)c1ccc(O)c(CO)c1 (stereo not shown)", "yes"),
    ("COc1ccccc1OCCNCC(O)COc1cccc2[nH]c3ccccc3c12 (stereo not shown)", "no"),
    ("C=CCc1ccccc1OCC(O)CNC(C)C (stereo not shown)", "yes"),
    ("CC(C)(C)NCC(O)COc1cccc2c1CC(O)C(O)C2 (stereo not shown)", "no"),
]

---

- System: β2-adrenergic receptor
- Format: binding, mice
- CONDITION CONTEXT: 2 days of administration

# MOLECULE, Increased β2AR density
records = [
    ("COc1ccccc1OCCNCC(O)COc1cccc2[nH]c3ccccc3c12 (stereo not shown)", "no"),
    ("C=CCc1ccccc1OCC(O)CNC(C)C (stereo not shown)", "no"),
    ("CC(C)(C)NCC(O)c1ccc(O)c(CO)c1 (stereo not shown)", "no"),
]

These measurements were taken from patent US7528175B2.
